# assay_system: T1, NativeRPtag(large)_with_Tags_and_Cys (Thermoanaerobacter tengcongensis)
# T1 chain: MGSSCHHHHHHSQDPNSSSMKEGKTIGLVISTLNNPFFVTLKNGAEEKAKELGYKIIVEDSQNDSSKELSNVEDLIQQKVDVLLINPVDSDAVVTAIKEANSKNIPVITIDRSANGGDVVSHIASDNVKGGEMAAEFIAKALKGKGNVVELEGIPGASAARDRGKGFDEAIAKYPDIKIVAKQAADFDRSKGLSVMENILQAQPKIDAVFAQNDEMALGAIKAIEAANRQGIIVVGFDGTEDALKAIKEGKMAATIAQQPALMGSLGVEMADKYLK
# test_description: fluorescence anisotropy; DTT (100 mM)
measured_metric: Kd (nM)

[
  {
    "binder": "PAELKLITK (modifications not checked) [RPtag(small) Nd8, Cd4]",
    "value": 33
  }
]
